# Tested on: SK-MEL-2 melanoma
# procedure_text: NCI-60 one-dose screen, 48 h (100 = growth as untreated, 0 = no growth, -100 = all killed)
# stated_conditions: 10 µM
This is part of a sample that, as a whole, favours compounds with a hit. Of some 83,000 tested, about 20% had one in any assay.
assay_readout: growth (%)

compound	target_desc	observed_measurement
CC(N)C(Cc1ccc(Cl)cc1)c1ccc(Cl)cc1 (stereo not given)	SK-MEL-2 melanoma	-58
COc1ccc(OC)c(NC2=C(SCCc3ccccc3)C(=O)c3ccccc3C2=O)c1	SK-MEL-2 melanoma	73.2
N#Cc1c(C(F)(F)F)cc(Nc2ccc3nc(NCCN4CCCC4)oc3c2)n2c1nc1ccccc12	SK-MEL-2 melanoma	83.8
N#Cc1c(-c2ccc(C(F)(F)F)cc2)cc(NCC2CCS(=O)(=O)CC2)n2c1nc1ccccc12	SK-MEL-2 melanoma	89.7
Cc1cc(N(CCNc2ccnc3cc(Cl)ccc23)Cc2cccs2)nc(Cl)n1	SK-MEL-2 melanoma	-58.2

###

# Tested on: EKVX NSCLC
# procedure_text: NCI-60 one-dose screen, 48 h (100 = growth as untreated, 0 = no growth, -100 = all killed)
# stated_conditions: 10 µM unless noted
Compounds without any hit were thinned out: in the full panel of roughly 83,000, 20% have a hit.
Catalogue of growth readings, one per entry.

molecule	growth [%]
CN1[C@@H]2CC[C@H]1/C(=C\c1ccccc1)C1=C2[C@@H](c2ccccc2)C(C#N)=C(N)O1	98.4
CC(=O)C(C(C)=O)C(c1ccccc1)C(C(C)=O)C(C)=O	96.9
COc1ccc(F)c(F)c1C(=O)c1cnc(NC2CCN(S(C)(=O)=O)CC2)nc1N	2.22
CC(N)C(Cc1ccccc1)c1ccc(Cl)cc1 (stereo not given)	91.6
O=C(Nc1ccc(C2=NCCCN2)cc1)c1ccc(C(=O)Nc2ccc(C3=NCCCN3)cc2)nc1	96
Cc1ccccc1Nc1nc2nonc2nc1Nc1cccc(C)c1C	27.2
Cc1[nH]n(C(N)=S)c(=O)c1N=Nc1ccc(S(=O)(=O)Nc2ccncn2)cc1	120
Cn1cnc2c(F)c(Nc3ccc(Br)cc3Cl)c(C(=O)NOCCO)cc21	54.4
CCCCN1C(=O)c2cccc3c(-c4ccc5c(c4)ncn5C4CCCCC4)ccc(c23)C1=O	99.8
COc1cc2cc(NCc3ccc(Cl)cc3)nc(C)c2cc1OC	64.9
COC(=O)c1ccc2c(C(=Nc3ccc(N(C)C(=O)CN4CCN(C)CC4)cc3)c3ccccc3)c(O)[nH]c2c1	94
Nc1cc(C(F)(F)F)c(-c2cc(N3CCOCC3)nc(N3CCOCC3)n2)cn1	-13.4
Cc1cc(-c2cc(OC(=O)c3ccccc3)ccc2Cl)cc2nnc(Nc3ccc(OCCN4CCCC4)cc3)nc12	92.3
CC(C)NC[C@@H](C(=O)N1CCN(c2ncnc3c2[C@H](C)C[C@H]3O)CC1)c1ccc(Cl)cc1	72
COc1ccc(-n2c(=O)c3ccccc3n(Cc3ccc(C(=O)NO)cc3)c2=O)cc1	16.7
O=C(NO)c1ccc(Cn2c(=O)n(CCc3ccccc3)c(=O)c3ccccc32)cc1	38.8
NC1(C(=O)N[C@@H](CCO)c2ccc(Cl)cc2)CCN(c2ncnc3[nH]ccc23)CC1	61.9
Nc1c(Cl)cccc1[N+](=O)[O-]	104
O=C1/C(=C\c2cccc(OCCCCCOc3ccc(Cl)cc3)c2)N=C2SCCCN12	37.2
O=C(/C=C/c1ccc2c(c1)OCO2)c1c(O)c2ccccc2oc1=O	108
